- Test system: UACC-257
- Procedure Details: NCI tumour cell line growth inhibition, 48 h
Calls of active or inactive are those of the source. Rule as the data show it: active = GI50 up to about 1.1 µM and inactive = higher.
Measurement Type: GI50

- Compound: "CC(=O)NC(CCCCN(Cc1ccccc1)C(=O)N(C)N=O)C(=O)NCc1ccccc1 (stereo unspecified)"
  Result: "> 100 µM (inactive)"
- Compound: "O=C(NN1C(=O)C(Cl)C1c1cccc(O)c1)c1ccccc1O (stereo unspecified)"
  Result: "> 100 µM (inactive)"
- Compound: "CCC(=O)C(CCN1CCC(N2C(=O)C(CCC#N)c3ccccc32)CC1)(c1ccccc1)c1ccccc1 (stereo unspecified)"
  Result: "13 µM (inactive)"
- Compound: "N/N=C1\\C(=O)N(CCc2ccccc2)C(=O)C1C(=O)NCCc1ccccc1 (stereo unspecified)"
  Result: "> 100 µM (inactive)"
- Compound: "N#C/N=C(/NCCc1c[nH]c2ccccc12)Oc1ccccc1"
  Result: "> 100 µM (inactive)"
- Compound: "CCC1(c2ccc(OC)c(OC)c2)CCN(S(=O)(=O)c2ccc(C)cc2)C1 (stereo unspecified)"
  Result: "> 100 µM (inactive)"
- Compound: "COc1cccc2c1C(=O)C(=O)c1c-2oc(=O)c2cc(C)cc(OC)c12"
  Result: "14.9 µM (inactive)"
- Compound: "Nc1nc(-c2cccs2)cs1"
  Result: "> 100 µM (inactive)"
- Compound: "CC12CC(=O)C3C(CCC4=CC(=O)CCC43C)C1CC=C2CC(=O)O (stereo unspecified)"
  Result: "> 100 µM (inactive)"
- Compound: "CCOC(=O)C1=C(C)NC(=O)NC1c1ccc(OC)cc1OC (stereo unspecified)"
  Result: "> 100 µM (inactive)"
- Compound: "CCOC(=O)/C(=C\\c1ccccc1)C(=O)O"
  Result: "> 100 µM (inactive)"
- Compound: "O=C(O)CCc1nc2ccccc2[nH]1"
  Result: "> 100 µM (inactive)"
- Compound: "Cc1ccc(C2(N3CCOCC3)OC(C)(C)c3cccc4cccc2c34)cc1 (stereo unspecified)"
  Result: "18 µM (inactive)"
- Compound: "CCO[C@]12CCC[C@H]1[C@@H]1C(=O)c3ccccc3C(=O)C1=C(C)O2"
  Result: "> 100 µM (inactive)"
- Compound: "C/C(=C/CC[C@](C)(OC1OC(CO)C(O)C(O)C1OC1OC(C)C(O)C(O)C1O)[C@H]1CC[C@]2(C)[C@@H]1CC[C@@H]1[C@@]3(C)CC[C@H](O)C(C)(C)[C@@H]3C[C@H](O)[C@]12C)CO (stereo partly specified)"
  Result: "> 100 µM (inactive)"
- Compound: "COc1cc(Cn2c3c(c4cc(O)ccc42)Cc2ccccc2C3=O)cc(OC)c1"
  Result: "> 100 µM (inactive)"
- Compound: "Cc1ccc(C)c(COCCOCn2cc(Br)c(N)nc2=O)c1"
  Result: "> 100 µM (inactive)"
- Compound: "CCc1cccc(C(C)C)c1NC(=O)CC1Sc2ccccc2NC1=O (stereo unspecified)"
  Result: "43.8 µM (inactive)"
- Compound: "O=C(O)/C=C\\C(=O)Nc1ccccn1"
  Result: "> 100 µM (inactive)"
- Compound: "N#CC(C#N)=Cc1c(O)ccc2ccccc12"
  Result: "16.8 µM (inactive)"
- Compound: "Nc1ccc(C(=O)NN2C(=O)C(Cl)C2c2ccc([N+](=O)[O-])cc2)cc1 (stereo unspecified)"
  Result: "14.7 µM (inactive)"
